method: Cytotoxicity (CC50) determination, crystal violet assay
Format: cell-based
conditionsUsed: African green monkey; Vero E6 cells, 72 h, crystal violet; read-out: half-maximal cytotoxic concentration (CC50)
metric: CC50 at 72 h
Answer format reminder: number followed by unit.

Entry under test: COc1c(O)cc2oc(-c3ccc(O)cc3)cc(=O)c2c1O . Its CC50 at 72 h was 14.1 mg/mL
